Experiment: Aqueous solubility of compound in PBS buffer at pH 7.4 by HPLC analysis
Assay type: physicochemical
Property measured: solubility (µg/mL)

Past entries and their recorded results:
Cc1c(-c2ccc3c(=O)[nH]c4cc(C(C)(C)O)ccc4n23)cccc1-n1c(=O)[nH]c2c(F)cccc2c1=O    1.1
Cc1c(-c2cc(CO)c3c(=O)[nH]c4cc(C(C)(C)O)ccc4n23)cccc1-n1c(=O)[nH]c2c(F)cccc2c1=O    5.5

[A] Cc1c(-c2ccc(C(N)=O)n2-c2ccc(C(C)(C)O)cc2)cccc1-n1c(=O)[nH]c2c(F)cccc2c1=O
[B] CC(C)(O)c1ccc2c(c1)[nH]c(=O)c1ccc(-c3cccc(-n4c(=O)[nH]c5c(F)cccc5c4=O)c3CO)n12
Between the entries labelled A and B , which has a larger solubility value on record? Choose, then provide that item's label.
A

* * *

Test system: Ramos
Assay: Antiproliferative activity against human Ramos cells expressing BTK assessed as inhibition of cell proliferation incubated for 48 hrs by CCK-8 assay
Type: functional, cell-based
Property measured: IC50 (µM)

Cc1cc2c(=O)[nH]c3cc(C(C)(C)O)ccc3n2c1-c1cccc(-n2c(=O)[nH]c3c(F)cccc3c2=O)c1C    15
Cc1c(-c2ccc3c(=O)[nH]c4cc(C(C)(C)O)ccc4n23)cccc1-n1c(=O)[nH]c2c(F)cccc2c1=O    19.9
Cc1c(-c2ccc3c(=O)[nH]c4cc(C(C)(C)O)ccc4n23)cccc1-n1c(=O)[nH]c2cccc(F)c2c1=O    17.9
Cc1c(-c2ccc3c(=O)[nH]c4cc(C(C)(C)O)ccc4n23)cccc1N1CNc2c(F)cccc2C1=O    16.8
C=CC(=O)N1CCC[C@@H](n2nc(-c3ccc(Oc4ccccc4)cc3)c3c(N)ncnc32)C1    15.1

This collection of values is drawn from ChEMBL document CHEMBL6134853.
